Reference source for all entries: ChEMBL document CHEMBL2150939

Test system: MGC-803
Experiment: Growth inhibition of human MGC803 cells at 10 uM after 72 hrs by MTT assay
Assay type: functional
Conditions: MGC-803, 72 h, read-out: GI
Observable: inhibition of growth at 10 µM

| Compound | Observable | Result |
| --- | --- | --- |
| C[C@H]1[C@H](C)CC[C@]2(C(=O)O)CC[C@]3(C)C(=CC[C@@H]4[C@@]5(C)CC[C@H](O)C(C)(C)[C@@H]5CC[C@]43C)[C@H]12 [URSOLIC ACID] | inhibition of growth at 10 µM | 28.9% |
| C[C@H]1[C@H](C)CC[C@]2(C(=O)OCCN3CCN(C(=O)c4ccccc4C(F)(F)F)CC3)CC[C@]3(C)C(=CC[C@@H]4[C@@]5(C)CC[C@H](O)C(C)(C)[C@@H]5CC[C@]43C)[C@H]12 | inhibition of growth at 10 µM | 71.2% |
| C[C@H]1[C@H](C)CC[C@]2(C(=O)OCCN3CCN(C(=O)/C=C/c4ccccc4)CC3)CC[C@]3(C)C(=CC[C@@H]4[C@@]5(C)CC[C@H](O)C(C)(C)[C@@H]5CC[C@]43C)[C@H]12 | inhibition of growth at 10 µM | 51.1% |
| C[C@H]1[C@H](C)CC[C@]2(C(=O)OCCBr)CC[C@]3(C)C(=CC[C@@H]4[C@@]5(C)CC[C@H](O)C(C)(C)[C@@H]5CC[C@]43C)[C@H]12 | inhibition of growth at 10 µM | 39.4% |
| COc1cccc2c1C(=O)c1c(O)c3c(c(O)c1C2=O)C[C@@](O)(C(=O)CO)C[C@@H]3O[C@H]1C[C@H](N)[C@H](O)[C@H](C)O1 [DOXORUBICIN] | inhibition of growth at 10 µM | 92.1% |
